Hey, just so you know, these numbers are from PubChem BioAssay.

Molecular target: ATP-binding cassette sub-family B member 6 (Homo sapiens) (UniProt Q9NP58)
Sequence (Q9NP58 whole entry, looked up): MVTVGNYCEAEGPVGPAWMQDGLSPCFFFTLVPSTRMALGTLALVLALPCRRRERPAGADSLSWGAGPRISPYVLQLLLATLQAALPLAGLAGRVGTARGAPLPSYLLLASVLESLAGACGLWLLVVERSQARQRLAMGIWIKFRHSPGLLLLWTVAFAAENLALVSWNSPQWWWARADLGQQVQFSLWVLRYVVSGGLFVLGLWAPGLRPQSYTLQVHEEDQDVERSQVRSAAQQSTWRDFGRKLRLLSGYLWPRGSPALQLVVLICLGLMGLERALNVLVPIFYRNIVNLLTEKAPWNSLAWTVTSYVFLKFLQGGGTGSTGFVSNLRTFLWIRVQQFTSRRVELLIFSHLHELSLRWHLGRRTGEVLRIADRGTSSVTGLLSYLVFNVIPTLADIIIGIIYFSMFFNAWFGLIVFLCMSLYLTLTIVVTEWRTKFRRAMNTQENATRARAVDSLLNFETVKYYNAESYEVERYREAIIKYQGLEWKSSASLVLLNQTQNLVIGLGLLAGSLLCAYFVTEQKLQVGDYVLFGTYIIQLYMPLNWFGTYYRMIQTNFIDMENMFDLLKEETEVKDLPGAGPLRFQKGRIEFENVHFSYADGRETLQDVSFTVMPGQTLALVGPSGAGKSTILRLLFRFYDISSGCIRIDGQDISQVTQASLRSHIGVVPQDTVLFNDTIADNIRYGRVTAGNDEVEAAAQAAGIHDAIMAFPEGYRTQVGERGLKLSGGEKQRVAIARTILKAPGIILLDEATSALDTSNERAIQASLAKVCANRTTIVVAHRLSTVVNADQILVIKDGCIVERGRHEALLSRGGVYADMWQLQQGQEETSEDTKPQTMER
Assay: blockers of ABCB6-driven porphyrin uptake – K562-ABCB6 cells, flow cytometry, validation set, pilot screen (AID 588550);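 also: 0% = DMSO wells and 100% = benzethonium chloride 70 µM positive control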
Conditions: K562-ABCB6 porphyrin accumulation, 1 h, at 10 µM, active compounds read high
// reported inhibition per item

[
  {
    "COMPOUND STRUCTURE STRING": "N/C(=N\\OC(=O)/C=C/c1ccccc1)c1ccc(Br)cc1",
    "UNIT OF MEASURE": "%",
    "inhibition": 13
  },
  {
    "COMPOUND STRUCTURE STRING": "O=Cc1ccc(O)c(O)c1",
    "UNIT OF MEASURE": "%",
    "inhibition": 21
  },
  {
    "COMPOUND STRUCTURE STRING": "COC(=O)C1=CN(Cc2cccs2)C=C(C(=O)OC)C1c1cccc(Cl)c1",
    "UNIT OF MEASURE": "%",
    "inhibition": 6
  },
  {
    "COMPOUND STRUCTURE STRING": "COc1cc(CNCCc2c[nH]c3ccccc23)cc(Cl)c1OCC(N)=O",
    "UNIT OF MEASURE": "%",
    "inhibition": 0
  },
  {
    "COMPOUND STRUCTURE STRING": "Cc1coc2c1c(C)cc1oc(=O)c(Cc3ccccc3)c(C)c12",
    "UNIT OF MEASURE": "%",
    "inhibition": 1
  },
  {
    "COMPOUND STRUCTURE STRING": "Cc1cn([C@H]2C[C@H](N=[N+]=[N-])[C@@H](CO)O2)c(=O)[nH]c1=O",
    "UNIT OF MEASURE": "%",
    "inhibition": 13
  }
]

###

Target: AP-2 complex subunit beta (Homo sapiens) (UniProt P63010)
Sequence (P63010 whole entry, looked up, one chain of several): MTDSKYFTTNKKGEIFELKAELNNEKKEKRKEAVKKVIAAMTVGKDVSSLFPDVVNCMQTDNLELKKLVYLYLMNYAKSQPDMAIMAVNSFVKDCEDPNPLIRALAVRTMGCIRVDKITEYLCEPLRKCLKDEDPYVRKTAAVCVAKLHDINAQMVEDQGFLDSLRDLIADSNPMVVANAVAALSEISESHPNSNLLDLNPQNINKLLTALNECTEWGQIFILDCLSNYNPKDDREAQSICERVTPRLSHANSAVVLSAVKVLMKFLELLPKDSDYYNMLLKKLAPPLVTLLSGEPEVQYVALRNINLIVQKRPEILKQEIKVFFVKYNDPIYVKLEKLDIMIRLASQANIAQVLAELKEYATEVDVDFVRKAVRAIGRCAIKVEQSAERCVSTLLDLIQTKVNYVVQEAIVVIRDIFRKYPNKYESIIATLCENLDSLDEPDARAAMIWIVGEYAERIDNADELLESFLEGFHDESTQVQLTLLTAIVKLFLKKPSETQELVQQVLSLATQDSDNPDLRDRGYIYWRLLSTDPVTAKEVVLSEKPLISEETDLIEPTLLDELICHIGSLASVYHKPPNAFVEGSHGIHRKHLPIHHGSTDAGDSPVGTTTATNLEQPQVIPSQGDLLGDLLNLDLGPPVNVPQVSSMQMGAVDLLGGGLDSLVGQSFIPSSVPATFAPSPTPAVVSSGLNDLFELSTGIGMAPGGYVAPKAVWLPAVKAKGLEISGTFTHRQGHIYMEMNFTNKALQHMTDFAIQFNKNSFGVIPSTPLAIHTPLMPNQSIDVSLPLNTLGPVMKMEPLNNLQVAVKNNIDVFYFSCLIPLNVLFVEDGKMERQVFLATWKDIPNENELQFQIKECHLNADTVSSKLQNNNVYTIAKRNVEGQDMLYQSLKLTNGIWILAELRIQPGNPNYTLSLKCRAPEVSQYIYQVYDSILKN
Experiment: beta-arrestin/AP2 interaction blockers – biochemical, validation set, GST-AP2 beads, flow cytometry, pilot screen (AID 504541);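 also: AP2 carries R879A mutation and is captured from E. coli lysate; bead-bound FITC arrestin peptide fluorescence measuring arrestin peptide binding to AP2; 0% = DMSO wells and 100% = excess unlabeled arrestin peptide control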
Settings: FITC arrestin peptide, at 10 µM, active compounds read high, AP2 beta2 appendage fragment, R879A mutant
VALUE KIND: inhibition (%)

[
  {
    "MOLECULE": "Cc1ccnc2c1NC(=O)c1cccnc1N2C1CC1",
    "VALUE KIND": "inhibition",
    "VAL": -5.17
  },
  {
    "MOLECULE": "COc1ccc(/C=C(/C#N)c2cccnc2)cc1OC",
    "VALUE KIND": "inhibition",
    "VAL": 23.7
  },
  {
    "MOLECULE": "O=C1CCCN1C(=O)CCC(=O)N1CCCC1=O",
    "VALUE KIND": "inhibition",
    "VAL": -9.79
  },
  {
    "MOLECULE": "CCOC(=O)C(=Cc1ccccc1OC)C(=O)OCC",
    "VALUE KIND": "inhibition",
    "VAL": 0.13
  },
  {
    "MOLECULE": "O=c1c(C(c2ccccc2)c2c(O)sc3ccccc3c2=O)c(O)sc2ccccc12",
    "VALUE KIND": "inhibition",
    "VAL": -1.26
  },
  {
    "MOLECULE": "CC(NC(=O)OCc1ccccc1)C(=O)N1CC(O)CC1C(=O)O (stereo not drawn)",
    "VALUE KIND": "inhibition",
    "VAL": 31.1
  },
  {
    "MOLECULE": "O=C(NC1CC1)C1CCN(C2CCN(C(=O)Cc3ccc(F)cc3)CC2)CC1",
    "VALUE KIND": "inhibition",
    "VAL": 44.4
  },
  {
    "MOLECULE": "CN(CCO)CC(O)Cn1cnc2c1c(=O)n(C)c(=O)n2C (stereo not drawn) (tested in a mixture with another compound)",
    "VALUE KIND": "inhibition",
    "VAL": -3.41
  },
  {
    "MOLECULE": "COc1ccc(C2OC(=O)Cc3cc(OC)c(OC)cc32)cc1 (stereo not drawn)",
    "VALUE KIND": "inhibition",
    "VAL": -4.51
  },
  {
    "MOLECULE": "COc1cccc(-n2cc(CNCc3c(C(=O)N(C)C)nc4ccc(Cl)cn34)cn2)c1",
    "VALUE KIND": "inhibition",
    "VAL": -5.56
  },
  {
    "MOLECULE": "Cn1cc(/C=C/C(=O)c2ccccc2)c2ccccc21",
    "VALUE KIND": "inhibition",
    "VAL": 4.67
  },
  {
    "MOLECULE": "Cc1cc(Cl)cc2c1NC(=O)[C@]21[C@@H]2C(=O)N(Cc3ccccc3)C(=O)[C@@H]2[C@@H]2CCCN21",
    "VALUE KIND": "inhibition",
    "VAL": -2.45
  },
  {
    "MOLECULE": "COc1cc(C(=O)OCCn2c(=O)c3c(ncn3CCN(C)C)n(C)c2=O)cc(OC)c1OC",
    "VALUE KIND": "inhibition",
    "VAL": -2.34
  },
  {
    "MOLECULE": "O=C(O)c1ccc(OCCn2ccnc2)cc1",
    "VALUE KIND": "inhibition",
    "VAL": -0.39
  },
  {
    "MOLECULE": "O=C(CCSc1ccccc1)N1CCCC1",
    "VALUE KIND": "inhibition",
    "VAL": 33.8
  },
  {
    "MOLECULE": "COc1cccc(CN2C(=O)N(C(C)C)C(N(O)C(=O)NC(C)C)C2(C)C)c1OC (stereo not drawn)",
    "VALUE KIND": "inhibition",
    "VAL": -6.77
  },
  {
    "MOLECULE": "CC1(C)Cc2nc3sc4c(=O)n(CC(N)=O)cnc4c3cc2CO1",
    "VALUE KIND": "inhibition",
    "VAL": 12.8
  },
  {
    "MOLECULE": "Cc1ccc(S(=O)(=O)NC(=O)Nc2cc(C)ccc2F)cc1",
    "VALUE KIND": "inhibition",
    "VAL": 56.9
  },
  {
    "MOLECULE": "CC(C)=CCCC1=CCC2C(=O)NNC(=O)C2C1 (stereo not drawn)",
    "VALUE KIND": "inhibition",
    "VAL": -0.62
  },
  {
    "MOLECULE": "CC(C)OC(=O)c1ccc(NC(=O)c2cncc(Br)c2)cc1",
    "VALUE KIND": "inhibition",
    "VAL": -2.11
  },
  {
    "MOLECULE": "O=C(Cc1ccccc1)NCC(=O)OCC(=O)c1ccccc1Cl",
    "VALUE KIND": "inhibition",
    "VAL": -4.1
  },
  {
    "MOLECULE": "O=C(N/C(=C/C=C\\c1ccccc1)C(=O)N1CCOCC1)c1ccc(Br)cc1",
    "VALUE KIND": "inhibition",
    "VAL": 6.94
  },
  {
    "MOLECULE": "COc1ccc2cc([C@H](C)C(=O)O)ccc2c1",
    "VALUE KIND": "inhibition",
    "VAL": -13.8
  }
]
